- Test system: Wolbachia pipientis
- EXPERIMENT_NOTES: Anti-Wolbachia Cell-Based Screen
- Type: functional
- Design: scale not given: in the data most compounds retested in dose-response had high values
- MEASUREMENT_PARAMETERS: 5 µM
Among all 48,000 compounds or so, about 13,000 (27%) showed an effect of 50% or more. The list shows a part of the results.
Item-by-item account of Percent Effect
# include the unit after the value

[
  {
    "COMPOUND": "CS(=O)(=O)NC(=O)c1nnn(-c2ccccc2)c1C1CC1",
    "MEASURED_TARGET": "Wolbachia pipientis",
    "Percent Effect": "97.89%"
  }
]

Req: Bench note: what Percent Effect did Cc1nnc(CN(C)C2CCN(CCc3cccs3)C2)n1C (configuration not stated) show?
Resp: 4.049%

Req: I would be grateful if you could share the reported Percent Effect for O=C(CCN1CCSCC1c1ccccc1)N1CCOCC1 (configuration not stated) .
Resp: 2.279%

Req: Would you kindly share the measured Percent Effect for `N#Cc1cccc(C(=O)N2CCc3ncc(Cn4cccn4)n3CC2)c1` ?
Resp: -16.45%

Req: So what's the measured Percent Effect for this one? `COc1cc(C(=O)NS(=O)(=O)c2cccc(C#N)c2)cc(OC)c1Br`
Resp: 100.1%

Req: What value of Percent Effect has been reported for the following compound? `COc1cc(C(=O)NS(=O)(=O)c2cccc(C#N)c2)cc(OC)c1C`
Resp: 111.6%

Req: I am curious: what Percent Effect value has been reported for `COc1cc(C(=O)NS(=O)(=O)c2cccc(C#N)c2)cc(Cl)c1OC` ?
Resp: 0.151%
